- System: U-251
- test-method-notes: NCI tumour cell line growth inhibition, 48 h
The source made the active and inactive calls. Cut-off read from the data, not from the text of the source: active = GI50 up to about 1.1 µM and inactive = higher.
Quick list: GI50 per entry.

>  <molecule>
C[C@@H](O)CCC(=O)c1ccoc1

>  <GI50>
> 100 µM (inactive)

$$$$
>  <molecule>
CC1=NN(C(=O)c2ccncc2)C(=O)C1

>  <GI50>
> 100 µM (inactive)

$$$$
>  <molecule>
COc1cc(Nc2cnc3cc(C(F)(F)F)ccc3n2)cc(OC)c1OC

>  <GI50>
> 100 µM (inactive)

$$$$
>  <molecule>
Cc1c(N=NN(C)C)cc[n+]([O-])c1C

>  <GI50>
> 100 µM (inactive)

$$$$
>  <molecule>
Nc1[nH]c(=S)[nH]c(=O)c1/N=N/c1c(Br)cc(S(N)(=O)=O)cc1Br

>  <GI50>
> 100 µM (inactive)

$$$$
>  <molecule>
COC1(OC)C2(Cl)C(Cl)=C(Cl)C1(Cl)C1C2C2CC1(C(=O)O)c1ccccc12 (stereo unspecified)

>  <GI50>
18.5 µM (inactive)

$$$$
>  <molecule>
[N-]=[N+]=Nc1c(C=O)c(=O)n2c3c(cccc13)CCC2

>  <GI50>
13.6 µM (inactive)

$$$$
>  <molecule>
O=C(NNC(=S)Nc1ccc(Cl)cc1)C12CC3CC(CC(C3)C1)C2

>  <GI50>
3.6 µM (inactive)

$$$$
>  <molecule>
Cc1ccc2c(c1)Nc1cc(C(F)(F)F)ccc1[PH]2=O (stereo unspecified)

>  <GI50>
27.2 µM (inactive)

$$$$
>  <molecule>
Cc1ccc(S(=O)(=O)NC(=O)C#CCOC2CCCCO2)cc1 (stereo unspecified)

>  <GI50>
> 100 µM (inactive)

$$$$

For the next question, use this molecule.
Test item COc1ccc(-c2c(C#N)c(N)nc(S)c2C#N)cc1 ; U-251; reported GI50 was 40.5 µM (inactive)

* * *

- Tested on: SF-539
- test-method-notes: NCI tumour cell line growth inhibition, 48 h
Active and inactive are the calls of the source. Rule as the data show it: active = GI50 up to about 1.1 µM and inactive = higher.
Measured GI50 values are reported for all entries that follow.

Measured GI50 for this entry C/C(=C/c1ccccc1)CN(C(=O)/C=C\Sc1ccccc1)C(C)(C)C on SF-539: > 91.2 µM (inactive)

GI50 for SF-539 with input CCO/C=C\C12CCCC1NC(c1ccccc1)(c1ccccc1)O2 (stereo not given) equals 25.3 µM (inactive)

Entry O=C(C(Cl)=C(Nc1ccccc1)Nc1ccccc1)C(Cl)Cl : GI50 on SF-539 = 24.6 µM (inactive)

* * *

- System: SNB-19
- test-method-notes: NCI tumour cell line growth inhibition, 48 h
Activity calls are given as the source filed them. Rule as the data show it: active = GI50 up to about 1.1 µM and inactive = higher.
measurement-kind: GI50

>  <molecule>
O=C1c2ccccc2-c2nnc(-c3ccc([N+](=O)[O-])cc3)cc21

>  <measurement-kind>
GI50

>  <result>
> 10 µM (inactive)

$$$$
>  <molecule>
CCCCCC#CCOC(=O)C(=[N+]=[N-])P(=O)(c1ccccc1)c1ccccc1

>  <measurement-kind>
GI50

>  <result>
> 10 µM (inactive)

$$$$
>  <molecule>
COc1cc2c(oc(=O)c3c4occc4cc(OC)c23)c2cccc(O)c12

>  <measurement-kind>
GI50

>  <result>
> 100 µM (inactive)

$$$$
>  <molecule>
O=[N+]([O-])c1ccc(-[n+]2ccc3ccccc3c2)c([N+](=O)[O-])c1

>  <measurement-kind>
GI50

>  <result>
18.1 µM (inactive)

$$$$
>  <molecule>
O=C(CCc1ccccc1CO)NCCc1ccccc1

>  <measurement-kind>
GI50

>  <result>
15.9 µM (inactive)

$$$$

For the next question, use this molecule.
Tested on SNB-19, the item CC1=NN=C(C)C1/N=N/c1ccc2[nH]c(C)nc2c1 showed GI50 equal to > 100 µM (inactive)

* * *

- Tested on: MOLT-4
- test-method-notes: NCI tumour cell line growth inhibition, 48 h
Activity calls are given as the source filed them. Rule as the data show it: active = GI50 up to about 1.1 µM and inactive = higher.
A correct response names exactly one class from active, inactive

Solved cases (10 shown):
>  <compound>
C=C(C)[C@@H]1CC[C@@]2(C)[C@H]1[C@H]1CCC3[C@@]4(C)CC[C@H](O)C(C)(C)[C@@H]4CC[C@@]3(C)[C@]1(C)C[C@@H]2O (some centres not stated) [CALENDULADIOL]

>  <group-label>
inactive

$$$$
>  <compound>
Cc1ccc2c(c1)-c1c(C#N)c(N)nc(-c3ccc(Cl)cc3)c1CCS2(=O)=O

>  <group-label>
inactive

$$$$
>  <compound>
CN(NC(=O)CCCl)C1=NCCCCN1

>  <group-label>
inactive

$$$$
>  <compound>
c1ccc2c(c1)c1c(n2CCOCCN2CCCC2)CCCC1

>  <group-label>
inactive

$$$$
>  <compound>
O=S1(=O)c2cnccc2N=C(NCc2ccccc2)N1c1ccccc1

>  <group-label>
inactive

$$$$
>  <compound>
CCc1ccc2c(c1)/C(=C1/Nc3ccccc3C1=O)C(=O)N2

>  <group-label>
inactive

$$$$
>  <compound>
NNC(=O)/C(=C/c1ccc(Cl)c(Cl)c1)NC(=O)c1ccccc1

>  <group-label>
inactive

$$$$
>  <compound>
COc1cc(Nc2nc3ccc(C(F)(F)F)cc3nc2-c2ccccc2)cc(OC)c1OC

>  <group-label>
inactive

$$$$
>  <compound>
O=C(O)c1ccc(Nc2ccnc3cc(Cl)ccc23)cc1O

>  <group-label>
inactive

$$$$
>  <compound>
COc1ccc(CNC(=O)[C@H](Cc2ccc(O)cn2)NC(C)=O)cc1OC

>  <group-label>
inactive

$$$$

Task: What outcome does the record of this test show for C=C(CN(C)C)C(=O)c1ccc(C(=O)C(=C)CN(C)C)cc1 ?
Output: inactive

Task: I would be grateful if you could indicate the recorded call for O=S(=O)(O)C(Cc1nc2ccccc2[nH]1)S(=O)(=O)OCCC1S(=O)(=O)OCCOS1(=O)=O (configuration not stated) .
Output: inactive

* * *

- Tested on: NCI-H522
- test-method-notes: NCI tumour cell line growth inhibition, 48 h
Calls of active or inactive are those of the source. Rule as the data show it: active = GI50 up to about 1.1 µM and inactive = higher.
// allowed return values: active, inactive

>  <molecule>
O=C(O)CC(CC(=O)O)C(=O)O

>  <group-label>
inactive

$$$$

Task: Could you please tell me the result logged for COC(=O)C(NC(=O)CSc1nnc(COc2ccc(Cl)cc2)n1-c1ccccc1)C(C)C (centres undefined) in this assay?
Output: inactive

Task: State the result this test recorded for CN(CCCCCl)P(=O)(OCC1=CC(=O)c2ccccc2C1=O)OC[C@H]1O[C@@H](n2cc(F)c(=O)[nH]c2=O)C[C@@H]1O (some centres undefined) .
Output: active

Task: What was the test verdict on O=C(O)CSCc1cc2c(O)c(c1)Cc1cc(CSCC(=O)O)cc(c1O)Cc1cc(CSCC(=O)O)cc(c1O)Cc1cc(CSCC(=O)O)cc(c1O)C2 ?
Output: inactive

Task: Please state the recorded outcome for this molecule: CC1(C)CC2C(/C1=N/O)C1(C)CCCC2(C)C1O (centres undefined)
Output: inactive

Task: Query: recorded result category for COc1ccc(N/N=C2\C3=C(CCC(C)(C)O3)C(=O)c3ccccc32)cc1 in this test
Output: inactive

Task: For COc1ccc(P2(=S)OCCOP(=S)(c3ccc(OC)cc3)S2)cc1 (centres undefined) , which call appears in the assay record?
Output: inactive

Task: I would be grateful if you could indicate the recorded call for COc1ccc2c(c1)CN1C(=N2)CSC1c1c(Cl)cccc1[N+](=O)[O-] (centres undefined) .
Output: inactive

* * *

- System: HCC 2998
- test-method-notes: NCI tumour cell line growth inhibition, 48 h
Activity calls are given as the source filed them. No stated cut-off is given here; in the data, active = GI50 up to about 1.1 µM and inactive = higher.
Form entry, call: pick from active, inactive

// below: answered molecules
>  <molecule>
CN1CC=C(c2cccn2C)CC1

>  <group-label>
inactive

$$$$
>  <molecule>
OC1(c2ccccc2)c2ccccc2N=C2NCCN21 (stereo not given)

>  <group-label>
inactive

$$$$
>  <molecule>
CC(C)(C)C(=O)CC(=O)C(C)(C)C.CC(C)(C)C(=O)CC(=O)C(C)(C)C.[SiH4]

>  <group-label>
active

$$$$

Task: Which result was noted for this molecule in the test: COP(=O)(OC)[C@H](O)[C@H]1C[C@@H]1c1ccccc1
Output: inactive

Task: Each molecule tested received a call. Report the one for Cc1c(-c2ccc(O)cc2)n(CCCCCCNCCOC(=O)NCCCc2ccc(N(CCCl)CCCl)cc2)c2ccc(O)cc12 .
Output: inactive

Task: Hi team, can someone confirm the assay call for CCCCOC(=O)NC(=O)c1cn(CCCOC(=O)CCCCCCCCC(=O)OCCCn2cc(C(=O)NC(=O)OCCCC)c(=O)[nH]c2=O)c(=O)[nH]c1=O ?
Output: inactive

Task: Entry COc1cccc(-c2cc(O)c3c(C)ccnc3n2)c1 : call = ?
Output: active

Task: Hey, what did the test say about CCCCOP1(=O)C=CC(Cl)=C(C)C1 (stereo not given) ?
Output: inactive

Task: Which outcome was assigned to C=CCOC(=O)CCCCCCCCCCCCCCCOC(=O)c1c(CCC[C@@H](C)O[Si](C)(C)C(C)(C)C)nc([O-])[n+]2c1CC[C@H]2CC1(CC/C=C\[C@H](CC)O[Si](C(C)C)(C(C)C)C(C)C)OCCO1 in this test?
Output: inactive

Task: // param item: Nc1nc(N)c2ncn(-c3ccc(Cl)c(Cl)c3)c2n1 ; yields the recorded call
Output: inactive
